test: Brain concentration and brain/plasma ratio in mouse after 10 mg/kg p.o.; format: in vivo; conditions: plasma, po, 10 mg/kg, PO 10 mg/kg, 8.00 h, individual animal R1, read-out: Plasma Concentration, R1 + 3n
readout-type: concentration at 8 h

[[record]]
compound = "CCN1CCN(Cc2ccc(Nc3ncc(F)c(-c4ccc5nn(C)c(C(C)C)c5c4)n3)nc2)CC1"
result = "868 ng/mL"

[[record]]
compound = "CCN1CCN(Cc2ccc(Nc3ncc(F)c(-c4cc(F)c5nc(C)n(C(C)C)c5c4)n3)nc2)CC1 [abemaciclib, reference compound]"
result = "1020 ng/mL"


====

experiment: Brain concentration and brain/plasma ratio in mouse after 10 mg/kg p.o.; format: in vivo; settings: brain, po, 10 mg/kg, PO 10 mg/kg, 4.00 h, individual animal R1, read-out: Brain Concentration, R1 + 3n
# key: entry, value: concentration at 4 h
readout-type: concentration at 4 h (ng/g)

[[record]]
compound = "CCN1CCN(Cc2ccc(Nc3ncc(F)c(-c4cc(F)c5nc(C)n(C(C)C)c5c4)n3)nc2)CC1 [abemaciclib, reference compound]"
readout_type = "concentration at 4 h"
unit_tag = "ng/g"
numeric_readout = 452

[[record]]
compound = "CCN1CCN(Cc2ccc(Nc3ncc(F)c(-c4ccc5nn(C)c(C(C)C)c5c4)n3)nc2)CC1"
readout_type = "concentration at 4 h"
unit_tag = "ng/g"
numeric_readout = 1190


====

experiment: Brain concentration and brain/plasma ratio in mouse after 10 mg/kg p.o.; type: in vivo; conditions: brain, po, 10 mg/kg, PO 10 mg/kg, brain AUC0-last / plasma AUC0-last, read-out: AUC0-last Ratio, brain/plasma (B/P) ratio
readout-type: Kp

[[record]]
compound = "CCN1CCN(Cc2ccc(Nc3ncc(F)c(-c4cc(F)c5nc(C)n(C(C)C)c5c4)n3)nc2)CC1 [abemaciclib, reference compound]"
readout_type = "Kp"
numeric_readout = 0.43


====

test: Brain concentration and brain/plasma ratio in mouse after 10 mg/kg p.o.; assay type: in vivo; conditions: brain, po, 10 mg/kg, PO 10 mg/kg, 4.00 h, mean, read-out: Brain Concentration, Mean PO
readout-type: concentration at 4 h (ng/g)

[[record]]
compound = "CCN1CCN(Cc2ccc(Nc3ncc(F)c(-c4cc(F)c5nc(C)n(C(C)C)c5c4)n3)nc2)CC1 [abemaciclib, reference compound]"
numeric_readout = 430

[[record]]
compound = "CCN1CCN(Cc2ccc(Nc3ncc(F)c(-c4ccc5nn(C)c(C(C)C)c5c4)n3)nc2)CC1"
numeric_readout = 1160


====

experiment: Brain concentration and brain/plasma ratio in mouse after 10 mg/kg p.o.; type: in vivo; settings: brain, po, 10 mg/kg, PO 10 mg/kg, 24.0 h, individual animal R1, read-out: Brain Concentration, R1 + 3n
List of concentration at 24 h values.
readout-type: concentration at 24 h

[[record]]
compound = "CCN1CCN(Cc2ccc(Nc3ncc(F)c(-c4ccc5nn(C)c(C(C)C)c5c4)n3)nc2)CC1"
result = "9.06 ng/g"

[[record]]
compound = "CCN1CCN(Cc2ccc(Nc3ncc(F)c(-c4cc(F)c5nc(C)n(C(C)C)c5c4)n3)nc2)CC1 [abemaciclib, reference compound]"
result = "6.51 ng/g"


====

assay: Brain concentration and brain/plasma ratio in mouse after 10 mg/kg p.o.; format: in vivo; conditions: plasma, po, 10 mg/kg, PO 10 mg/kg, 24.0 h, mean, read-out: Plasma Concentration, Mean PO
readout-type: concentration at 24 h (ng/mL)

[[record]]
compound = "CCN1CCN(Cc2ccc(Nc3ncc(F)c(-c4ccc5nn(C)c(C(C)C)c5c4)n3)nc2)CC1"
unit_tag = "ng/mL"
numeric_readout = 6.75

[[record]]
compound = "CCN1CCN(Cc2ccc(Nc3ncc(F)c(-c4cc(F)c5nc(C)n(C(C)C)c5c4)n3)nc2)CC1 [abemaciclib, reference compound]"
unit_tag = "ng/mL"
numeric_readout = 24.9


====

test: Brain concentration and brain/plasma ratio in mouse after 10 mg/kg p.o.; assay type: in vivo; details: brain, po, 10 mg/kg, PO 10 mg/kg, 8.00 h, individual animal R1, read-out: Brain Concentration, R1 + 3n
readout-type: concentration at 8 h (ng/g)

[[record]]
compound = "CCN1CCN(Cc2ccc(Nc3ncc(F)c(-c4ccc5nn(C)c(C(C)C)c5c4)n3)nc2)CC1"
unit_tag = "ng/g"
numeric_readout = 1150

[[record]]
compound = "CCN1CCN(Cc2ccc(Nc3ncc(F)c(-c4cc(F)c5nc(C)n(C(C)C)c5c4)n3)nc2)CC1 [abemaciclib, reference compound]"
unit_tag = "ng/g"
numeric_readout = 421


====

test: Brain concentration and brain/plasma ratio in mouse after 10 mg/kg p.o.; format: in vivo; conditions: brain, po, 10 mg/kg, PO 10 mg/kg, 2.00 h, mean, read-out: Brain Concentration, Mean PO
concentration at 2 h for assorted compounds
readout-type: concentration at 2 h (ng/g)

[[record]]
compound = "CCN1CCN(Cc2ccc(Nc3ncc(F)c(-c4ccc5nn(C)c(C(C)C)c5c4)n3)nc2)CC1"
readout_type = "concentration at 2 h"
numeric_readout = 894

[[record]]
compound = "CCN1CCN(Cc2ccc(Nc3ncc(F)c(-c4cc(F)c5nc(C)n(C(C)C)c5c4)n3)nc2)CC1 [abemaciclib, reference compound]"
readout_type = "concentration at 2 h"
numeric_readout = 282


====

The entries below are paired with their reported concentration at 4 h.
assay: Brain concentration and brain/plasma ratio in mouse after 10 mg/kg p.o.; type: in vivo; details: plasma, po, 10 mg/kg, PO 10 mg/kg, 4.00 h, mean, read-out: Plasma Concentration, Mean PO
readout-type: concentration at 4 h (ng/mL)

[[record]]
molecule = "CCN1CCN(Cc2ccc(Nc3ncc(F)c(-c4ccc5nn(C)c(C(C)C)c5c4)n3)nc2)CC1"
unit_tag = "ng/mL"
numeric_readout = 797

[[record]]
molecule = "CCN1CCN(Cc2ccc(Nc3ncc(F)c(-c4cc(F)c5nc(C)n(C(C)C)c5c4)n3)nc2)CC1 [abemaciclib, reference compound]"
unit_tag = "ng/mL"
numeric_readout = 802


====

test: Brain concentration and brain/plasma ratio in mouse after 10 mg/kg p.o.; type: in vivo; conditions: plasma, po, 10 mg/kg, PO 10 mg/kg, 8.00 h, mean, read-out: Plasma Concentration, Mean PO
Quick reference: concentration at 8 h of the listed items.
readout-type: concentration at 8 h (ng/mL)

[[record]]
molecule = "CCN1CCN(Cc2ccc(Nc3ncc(F)c(-c4ccc5nn(C)c(C(C)C)c5c4)n3)nc2)CC1 [Compound 1]"
readout_type = "concentration at 8 h"
unit_tag = "ng/mL"
numeric_readout = 873

[[record]]
molecule = "CCN1CCN(Cc2ccc(Nc3ncc(F)c(-c4cc(F)c5nc(C)n(C(C)C)c5c4)n3)nc2)CC1 [abemaciclib, reference compound]"
readout_type = "concentration at 8 h"
unit_tag = "ng/mL"
numeric_readout = 837


====

Biological target: P-gp (Homo sapiens, UniProt P08183)
Construct: expressed in transfected cells; host or cells: MDR1-MDCK (MDCK cells expressing MDR1)
Sequence (P08183 whole entry): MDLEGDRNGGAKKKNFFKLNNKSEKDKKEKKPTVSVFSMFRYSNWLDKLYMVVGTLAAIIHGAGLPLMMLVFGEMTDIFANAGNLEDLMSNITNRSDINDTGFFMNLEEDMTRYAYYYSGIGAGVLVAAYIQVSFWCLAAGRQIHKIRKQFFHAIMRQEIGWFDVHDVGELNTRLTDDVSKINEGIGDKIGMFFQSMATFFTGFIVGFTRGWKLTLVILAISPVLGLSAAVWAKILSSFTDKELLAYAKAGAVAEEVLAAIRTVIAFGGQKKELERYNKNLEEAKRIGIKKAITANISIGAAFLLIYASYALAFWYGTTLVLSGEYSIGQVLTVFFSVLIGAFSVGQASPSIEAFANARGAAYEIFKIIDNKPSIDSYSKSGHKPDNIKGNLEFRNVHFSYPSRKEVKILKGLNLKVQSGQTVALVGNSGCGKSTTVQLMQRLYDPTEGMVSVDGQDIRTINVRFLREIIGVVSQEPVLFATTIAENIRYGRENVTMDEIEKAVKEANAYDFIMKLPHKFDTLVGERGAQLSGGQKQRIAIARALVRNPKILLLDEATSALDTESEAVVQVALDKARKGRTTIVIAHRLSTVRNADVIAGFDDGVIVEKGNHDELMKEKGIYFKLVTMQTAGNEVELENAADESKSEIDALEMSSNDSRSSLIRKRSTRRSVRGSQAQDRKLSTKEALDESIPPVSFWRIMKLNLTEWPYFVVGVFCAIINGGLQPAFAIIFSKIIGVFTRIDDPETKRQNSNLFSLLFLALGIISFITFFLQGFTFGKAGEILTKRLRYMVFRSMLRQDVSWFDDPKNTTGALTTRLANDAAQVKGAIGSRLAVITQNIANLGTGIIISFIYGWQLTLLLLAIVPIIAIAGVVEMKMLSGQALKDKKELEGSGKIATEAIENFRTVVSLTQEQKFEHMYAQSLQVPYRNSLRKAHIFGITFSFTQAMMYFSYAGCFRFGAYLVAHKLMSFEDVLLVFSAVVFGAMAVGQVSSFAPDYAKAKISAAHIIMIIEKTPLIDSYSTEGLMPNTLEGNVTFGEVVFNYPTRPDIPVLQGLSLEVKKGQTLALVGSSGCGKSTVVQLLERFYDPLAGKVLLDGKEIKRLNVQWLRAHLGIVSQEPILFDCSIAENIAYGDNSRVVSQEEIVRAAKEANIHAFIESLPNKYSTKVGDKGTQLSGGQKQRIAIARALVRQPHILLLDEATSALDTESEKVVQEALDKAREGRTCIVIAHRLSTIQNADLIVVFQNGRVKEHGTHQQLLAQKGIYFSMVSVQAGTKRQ
Assay: P-gp substrate potential using MDR1-MDCK monolayers (bidirectional permeability +/- valspodar)
Assay type: in vitro ADME
Details: dog, MDCK-MDR1, pH 7.4, MDR1-MDCK, 5 μM, B-to-A, without valspodar, average; read-out: Papp AVG
Protocol: The objective of this study was to determine the P-gp substrate potential of one test article using MDR1-MDCK monolayers. Each determination was performed in duplicate. […] Analytical conditions are outlined in Appendix 1. Papp=(dCr/dt)×Vr/(A×CA) (1) […]
readout-type: Papp B→A at 120 min, 5 μM

[[record]]
compound = "CCN1CCN(Cc2ccc(Nc3ncc(F)c(-c4ccc5nn(C)c(C(C)C)c5c4)n3)nc2)CC1 [Compound 1]"
readout_type = "Papp B→A at 120 min, 5 μM"
result = "7.77 ×10⁻⁶ cm/s"


====

Consider the following compounds and their measured concentration at 4 h readings.
assay: Brain concentration and brain/plasma ratio in mouse after 10 mg/kg p.o.; type: in vivo; conditions: plasma, po, 10 mg/kg, PO 10 mg/kg, 4.00 h, individual animal R2, read-out: Plasma Concentration, R2 + 3n
readout-type: concentration at 4 h (ng/mL)

[[record]]
compound = "CCN1CCN(Cc2ccc(Nc3ncc(F)c(-c4ccc5nn(C)c(C(C)C)c5c4)n3)nc2)CC1"
readout_type = "concentration at 4 h"
numeric_readout = 543

[[record]]
compound = "CCN1CCN(Cc2ccc(Nc3ncc(F)c(-c4cc(F)c5nc(C)n(C(C)C)c5c4)n3)nc2)CC1 [abemaciclib, reference compound]"
readout_type = "concentration at 4 h"
numeric_readout = 744


====

target: P-gp (Homo sapiens, UniProt P08183); construct: expressed in transfected cells; host or cells: MDR1-MDCK (MDCK cells expressing MDR1); assay: P-gp substrate potential using MDR1-MDCK monolayers (bidirectional permeability +/- valspodar); format: in vitro ADME; conditions: dog, MDCK-MDR1, pH 7.4, MDR1-MDCK, 5 μM, A-to-B, without valspodar, 120 minutes
readout-type: recovery at 120 min, 5 μM (%)

[[record]]
query_smiles = "CCN1CCN(Cc2ccc(Nc3ncc(F)c(-c4ccc5nn(C)c(C(C)C)c5c4)n3)nc2)CC1"
unit_tag = "%"
numeric_readout = 22

